System: human TOR (FLAG-TOR) (Homo sapiens)
Test method notes: mTOR enzyme assay (DELFIA format, purified enzyme)
Assay setup: 800 ng/ml FLAG-TOR, 100 μM ATP, 1.25 μM His6-S6K; read-out: mTOR Kinase IC50
Assay readout: IC50 (µM)

Use these answered entries as a reference point.
{"Chemical structure": "O=c1cc(Oc2cccc(-c3ccc(NC4CCN(Cc5ccccn5)CC4)cc3)c2)c2ccccc2[nH]1", "Assay readout": "IC50", "Experimental result": 0.11}
{"Chemical structure": "CS(=O)(=O)Nc1ccc(-c2cccc(Oc3cc(=O)[nH]c4ccccc34)c2)cc1", "Assay readout": "IC50", "Experimental result": 0.27}

(A) O=c1cc(Oc2cccc(NCc3ccco3)c2)c2ccccc2[nH]1
(B) N#C[BH2-][n+]1cccc(CNc2cccc(Oc3cc(=O)[nH]c4ccccc34)c2)c1
(C) O=c1cc(Oc2cccc3ccccc23)c2ccccc2[nH]1
(D) O=c1cc(Oc2ccc(I)cc2)c2ccccc2[nH]1
**Q:** I would appreciate it if you could sort these 4 compounds by IC50, starting from the smallest number. Provide your answer as the labels ordered per the instruction.
**A:** B, A, C, D
(B: 0.03 µM, A: 0.13 µM, C: 0.23 µM, D: 0.74 µM)

====

System: human TOR (FLAG-TOR) (Homo sapiens, UniProt P42345)
Test method notes: mTOR enzyme assay (DELFIA format, purified enzyme)
Assay setup: 800 ng/ml FLAG-TOR, 100 μM ATP, 1.25 μM His6-S6K; read-out: mTOR Kinase IC50
Assay readout: IC50 (nM)

{"Molecule": "O=c1cc(Oc2ccccc2)c2cc(-c3ccoc3)ccc2[nH]1", "System": "human TOR (FLAG-TOR) (Homo sapiens, UniProt P42345)", "Experimental result": 7300}

(P) O=c1cc(Oc2cccc(NC3CCN(Cc4ccncc4)CC3)c2)c2ccccc2[nH]1
(Q) CCN1CCCC(Nc2ccc(-c3cccc(Oc4cc(=O)[nH]c5ccccc45)c3)cc2)C1 (centres unmarked)
(R) CN1CCN(c2ccc(Oc3cc(=O)[nH]c4ccccc34)cc2)CC1
(S) O=c1cc(Oc2ccc(-c3ccc(NCCN4CCOCC4)nc3)cc2)c2ccccc2[nH]1
**Q:** I would appreciate it if you could sort these 4 molecules by IC50, starting from the smallest number. Provide your answer as the labels ordered per the instruction.
**A:** P, Q, S, R
(P: 150 nM, Q: 310 nM, S: 1080 nM, R: 7000 nM)

====

# reported melting point; entries follow

{"Molecule": "CN1CCN(c2cccc(Oc3cc(=O)[nH]c4ccccc34)c2)CC1 [Example 140]", "melting point": "218 to 221 °C"}

**Q:** Given O=c1cc(Oc2ccccn2)c2ccccc2[nH]1 [Example 137, 4-(pyridin-2-yloxy)quinolin-2(1H)-one] , respond with its melting point.
**A:** > 360 °C

**Q:** Given O=c1cc(Oc2cccnc2)c2ccccc2[nH]1 [Example 119, 4-(pyridin-3-yloxy)quinolin-2(1H)-one] , respond with its melting point.
**A:** 242 to 243 °C

**Q:** Given CN(Cc1cccnc1)c1cccc(Oc2cc(=O)[nH]c3ccccc23)c1 [Example 161] , respond with its melting point.
**A:** 187 to 193 °C (dec.)

**Q:** Given O=c1cc(Oc2cccc(OCc3ccccc3)c2)c2ccccc2[nH]1 [Example 57] , respond with its melting point.
**A:** 262 to 265 °C

====

System: human TOR (FLAG-TOR) (Homo sapiens, UniProt P42345)
Test method notes: mTOR enzyme assay (DELFIA format, purified enzyme)
Assay setup: 800 ng/ml FLAG-TOR, 100 μM ATP, 1.25 μM His6-S6K; read-out: mTOR Kinase IC50
Assay readout: IC50 (nM)

{"Molecule": "O=c1cc(Oc2ccc(Br)cc2)c2ccccc2[nH]1", "System": "human TOR (FLAG-TOR) (Homo sapiens, UniProt P42345)", "IC50 (nM)": 2200}
{"Molecule": "Nc1ccc(-c2cccc(Oc3cc(=O)[nH]c4ccccc34)c2)cc1", "System": "human TOR (FLAG-TOR) (Homo sapiens, UniProt P42345)", "IC50 (nM)": 290}
{"Molecule": "CC(C)(C)OC(=O)N1CC=C(c2cccc(Oc3cc(=O)[nH]c4ccccc34)c2)CC1", "System": "human TOR (FLAG-TOR) (Homo sapiens, UniProt P42345)", "IC50 (nM)": 650}
{"Molecule": "CC(=O)Nc1ccc(Oc2cc(=O)[nH]c3ccccc23)cc1", "System": "human TOR (FLAG-TOR) (Homo sapiens, UniProt P42345)", "IC50 (nM)": 6000}
{"Molecule": "O=c1cc(Oc2cccc(NCc3ccsc3)c2)c2ccccc2[nH]1", "System": "human TOR (FLAG-TOR) (Homo sapiens, UniProt P42345)", "IC50 (nM)": 120}

(A) O=c1cc(Oc2ccc(-c3cccc(O)c3)cc2)c2ccccc2[nH]1
(B) O=C(NCCO)Nc1ccc(-c2cccc(Oc3cc(=O)[nH]c4ccccc34)c2)cc1
**Q:** Which of these two has the smaller recorded IC50: A or B ? Select an item and report its label.
**A:** B
(B: 250 nM, A: 710 nM)

(1) Cn1cc(CN(Cc2ccn(C)n2)c2cccc(Oc3cc(=O)[nH]c4ccccc34)c2)cn1
(2) O=c1cc(Oc2cccc(-c3ccsc3)c2)c2ccccc2[nH]1
(3) CC(C)(C)OCNC(=O)c1cccc(-c2cccc(Oc3cc(=O)[nH]c4ccccc34)c2)c1
(4) O=c1cc(Oc2cccc(-c3ccc(NCCN4CCOCC4)nc3)c2)c2ccccc2[nH]1
**Q:** I would appreciate it if you could sort these 4 molecules by IC50, starting from the smallest number. Provide your answer as the labels ordered per the instruction.
**A:** 4, 1, 2, 3
(4: 150 nM, 1: 230 nM, 2: 630 nM, 3: 2380 nM)

====

System: human TOR (FLAG-TOR) (Homo sapiens)
Test method notes: mTOR enzyme assay (DELFIA format, purified enzyme)
Assay setup: 800 ng/ml FLAG-TOR, 100 μM ATP, 1.25 μM His6-S6K; read-out: mTOR Kinase IC50
pIC50: −log10 of the molar value.
Assay readout: pIC50

Use these answered entries as a reference point.
{"Chemical structure": "O=c1cc(Oc2cccc(-c3ccc(NC4CCNCC4)cc3)c2)c2ccccc2[nH]1", "pIC50": 7.05}
{"Chemical structure": "CNc1ncccc1CNc1cccc(Oc2cc(=O)[nH]c3ccccc23)c1", "pIC50": 7.05}
{"Chemical structure": "Cc1ccc(Oc2cc(=O)[nH]c3ccccc23)cc1C", "pIC50": 6.16}
{"Chemical structure": "N#Cc1ccc(Oc2cc(=O)[nH]c3ccccc23)cc1", "pIC50": 5.12}
{"Chemical structure": "O=c1cc(Oc2cccc(NCc3ccc(-n4ccnc4)cc3)c2)c2ccccc2[nH]1", "pIC50": 7.10}
{"Chemical structure": "Nc1ccc(-c2cccc(Oc3cc(=O)[nH]c4ccccc34)c2)cn1", "pIC50": 7.05}

(I) O=C(Cc1cccs1)Nc1ccc2[nH]c(=O)cc(Oc3ccccc3)c2c1
(II) COC(=O)c1cc(Oc2cc(=O)[nH]c3ccccc23)ccc1OC
**Q:** Could you please tell me which of these two has the higher pIC50: I or II ? Select an item and report its label.
**A:** II

(A) CN(C)CCCNC(=O)c1cccc(-c2cccc(Oc3cc(=O)[nH]c4ccccc34)c2)c1
(B) CN(C)CCNc1ccc(-c2cccc(Oc3cc(=O)[nH]c4ccccc34)c2)cc1
**Q:** Could you please tell me which of these two has the higher pIC50: A or B ? Select an item and report its label.
**A:** B
(B: 6.74, A: 6.30)

====

pIC50: −log10 of the molar value.
PI3Kα (Homo sapiens, UniProt P42336): reported pIC50 for various compounds.
Sequence (P42336 whole entry, species assumed): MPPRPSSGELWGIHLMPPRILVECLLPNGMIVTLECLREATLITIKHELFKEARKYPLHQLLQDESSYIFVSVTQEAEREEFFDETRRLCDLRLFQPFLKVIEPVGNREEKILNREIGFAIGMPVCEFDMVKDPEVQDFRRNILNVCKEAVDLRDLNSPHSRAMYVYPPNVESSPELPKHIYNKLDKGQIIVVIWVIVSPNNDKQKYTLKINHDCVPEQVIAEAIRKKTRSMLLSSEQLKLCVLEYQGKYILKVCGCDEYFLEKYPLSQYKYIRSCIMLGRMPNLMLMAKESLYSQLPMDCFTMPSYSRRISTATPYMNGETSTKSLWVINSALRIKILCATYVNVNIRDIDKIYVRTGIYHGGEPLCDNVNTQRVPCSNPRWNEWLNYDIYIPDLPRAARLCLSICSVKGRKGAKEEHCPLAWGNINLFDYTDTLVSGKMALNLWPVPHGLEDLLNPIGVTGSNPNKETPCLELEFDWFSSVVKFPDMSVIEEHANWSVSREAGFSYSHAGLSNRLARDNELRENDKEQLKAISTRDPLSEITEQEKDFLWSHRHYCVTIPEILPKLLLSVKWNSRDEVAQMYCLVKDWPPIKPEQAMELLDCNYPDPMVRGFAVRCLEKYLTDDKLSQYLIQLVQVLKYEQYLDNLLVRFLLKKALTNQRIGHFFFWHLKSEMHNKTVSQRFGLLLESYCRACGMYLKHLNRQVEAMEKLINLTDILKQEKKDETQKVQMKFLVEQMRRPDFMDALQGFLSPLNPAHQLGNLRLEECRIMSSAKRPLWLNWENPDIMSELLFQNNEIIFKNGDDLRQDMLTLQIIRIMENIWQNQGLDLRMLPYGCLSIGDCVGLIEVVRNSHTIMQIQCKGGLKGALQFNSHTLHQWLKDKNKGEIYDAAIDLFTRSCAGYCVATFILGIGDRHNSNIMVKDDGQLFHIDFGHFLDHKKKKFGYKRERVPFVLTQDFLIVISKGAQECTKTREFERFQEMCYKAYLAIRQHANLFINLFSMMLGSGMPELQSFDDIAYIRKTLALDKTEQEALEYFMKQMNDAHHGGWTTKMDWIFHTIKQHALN
Sequence (P27986 whole entry partner, species assumed): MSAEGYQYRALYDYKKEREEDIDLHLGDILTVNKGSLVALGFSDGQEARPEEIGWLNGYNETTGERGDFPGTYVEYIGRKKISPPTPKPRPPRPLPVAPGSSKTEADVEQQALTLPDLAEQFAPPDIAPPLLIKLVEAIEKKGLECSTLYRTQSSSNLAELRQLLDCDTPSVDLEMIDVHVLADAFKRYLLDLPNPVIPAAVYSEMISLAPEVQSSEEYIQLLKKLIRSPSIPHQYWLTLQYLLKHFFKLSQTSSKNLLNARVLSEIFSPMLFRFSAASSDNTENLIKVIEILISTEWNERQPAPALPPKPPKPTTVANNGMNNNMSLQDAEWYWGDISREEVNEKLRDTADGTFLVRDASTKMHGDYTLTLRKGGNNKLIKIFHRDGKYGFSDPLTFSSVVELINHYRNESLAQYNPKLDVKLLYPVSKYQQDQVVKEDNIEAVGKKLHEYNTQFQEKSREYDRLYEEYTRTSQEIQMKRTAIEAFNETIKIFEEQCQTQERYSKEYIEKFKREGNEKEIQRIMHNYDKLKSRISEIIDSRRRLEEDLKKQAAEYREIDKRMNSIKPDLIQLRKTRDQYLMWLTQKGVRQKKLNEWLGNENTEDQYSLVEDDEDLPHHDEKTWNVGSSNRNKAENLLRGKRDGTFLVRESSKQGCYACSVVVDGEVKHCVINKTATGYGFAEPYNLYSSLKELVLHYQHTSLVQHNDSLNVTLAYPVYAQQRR
Assay readout: pIC50

Use these answered entries as a reference point.
{"Compound": "O=c1cc(Oc2cccc(OC(F)(F)F)c2)c2ccccc2[nH]1", "pIC50": 5.10}
{"Compound": "O=c1cc(Oc2ccc(-c3ccncc3)cc2)c2ccccc2[nH]1", "pIC50": 5.31}
{"Compound": "O=c1cc(Oc2cccc(NCc3cnc4[nH]ccc4c3)c2)c2ccccc2[nH]1", "pIC50": 5.47}

(P) O=c1cc(Oc2ccccc2)c2cc(-c3cccnc3)ccc2[nH]1
(Q) COc1cnc(OC)c(CNc2cccc(Oc3cc(=O)[nH]c4ccccc34)c2)c1
**Q:** Which of these two has the smaller recorded pIC50: P or Q ? Select an item and report its label.
**A:** P
(P: 5.13, Q: 5.71)

(A) Cn1ccc2cc(CNc3cccc(Oc4cc(=O)[nH]c5ccccc45)c3)ccc21
(B) Nc1ccc(-c2cccc(Oc3cc(=O)[nH]c4ccccc34)c2)cn1
**Q:** Which of these two has the smaller recorded pIC50: A or B ? Select an item and report its label.
**A:** B

(I) COc1ncccc1CNc1cccc(Oc2cc(=O)[nH]c3ccccc23)c1
(II) O=C(Cc1cccs1)Nc1ccc2[nH]c(=O)cc(Oc3ccccc3)c2c1
**Q:** Could you please tell me which of these two has the higher pIC50: I or II ? Select an item and report its label.
**A:** II

(I) Cn1cc(CN(Cc2ccn(C)n2)c2cccc(Oc3cc(=O)[nH]c4ccccc34)c2)cn1
(II) Cc1ccccc1Oc1cc(=O)[nH]c2ccccc12
**Q:** Could you please tell me which of these two has the higher pIC50: I or II ? Select an item and report its label.
**A:** I
(I: 5.34, II: 5.10)
